System: NCI/ADR-RES ovarian
Assay: NCI tumour cell line growth inhibition, 48 h
# binarize TGI: threshold 6 µM inclusive, high side Met, low side Not met

Here are 5 compounds together with their reported answers.
hey, is TGI for this one >= 6 µM? COc1ccc(C(c2cc3c(cc2O)OCO3)N2CCOCC2)cc1OC (stereo unspecified)
Met

hey, is TGI for this one >= 6 µM? COc1ccc(C2CC(=O)c3c(O)c(OC)c(OC)c(OC)c3O2)cc1O (stereo unspecified)
Met

hey, is TGI for this one >= 6 µM? CCOC(=O)N1C=CC(=C2C(=C3C=CN(C(=O)OCC)C=C3)C(=C3C=CN(C(=O)OCC)C=C3)C2=C2C=CN(C(=O)OCC)C=C2)C=C1
Met

hey, is TGI for this one >= 6 µM? N#CSc1ccc(S(N)(=O)=O)cc1
Met

hey, is TGI for this one >= 6 µM? CCOC(=O)c1ccc(N=c2oc3ccc(OC)cc3cc2-c2nc3ccccc3[nH]2)cc1
Met

Next:
hey, is TGI for this one >= 6 µM? C=CCC1C(=O)Nc2cccc3ncn(c23)C1=O (stereo unspecified)
Met

hey, is TGI for this one >= 6 µM? Cc1ccc(S(=O)(=O)OC[C@@]2(C)CC[C@]3(C)CC[C@]4(C)C(=CC[C@@H]5[C@@]6(C)CCCNC(C)(C)[C@@H]6CC[C@]54C)[C@@H]3C2)cc1
Not met

###

Tested on: HL-60(TB) leukemia
Test: NCI tumour cell line growth inhibition, 48 h; in the data active = GI50 below about 0.43 µM; inactive = the rest
A correct response names exactly one class from TRUE = active, FALSE = inactive

Here are 4 compounds together with their reported answers.
Query: recorded result category for Nc1c2ccccc2nc2ccccc12 (tested in a mixture with another compound) in this test
FALSE

Query: recorded result category for COc1ccc2nc(-c3cc4c([nH]c5ccccc54)c(-c4ccc(F)c(F)c4)n3)[nH]c2c1 in this test
FALSE

Query: recorded result category for Cc1nn(C)c2cc(N(C)c3ccnc(Nc4cccc(S(N)(=O)=O)c4)n3)ccc12 in this test
FALSE

Query: recorded result category for CN1CCN(CC(=O)N2c3cccc4cccc(c34)N(C(=O)CN3CCN(C)CC3)C2c2cn(-c3ccccc3)nc2-c2cccc([N+](=O)[O-])c2)CC1 in this test
FALSE

Next:
Query: recorded result category for COc1cc(C)c(NC(=O)CN(C)C)cc1Nc1nc(Nc2cccc(F)c2C(N)=O)c2cc[nH]c2n1 in this test
TRUE

Query: recorded result category for COc1cnc2c(c1)C(=O)c1c-2n(CCCNC(C)C)c(=O)c2cc([N+](=O)[O-])ccc12 in this test
TRUE

Query: recorded result category for Cc1cc2nc(C(Cl)Cl)nc(-c3ccccc3)n2n1 in this test
FALSE

###

Test system: NCI-H226 lung
Test: NCI tumour cell line growth inhibition, 48 h; in the data active = GI50 below about 0.43 µM; inactive = the rest
A correct response names exactly one class from y (active), n (inactive)

Query: recorded result category for Cc1c(-c2nnc(-c3cc(Cl)c(Cl)cc3Cl)o2)nnn1-c1ccnc2c(C(F)(F)F)cccc12 in this test
n

Query: recorded result category for Cc1nn(C)c2cc(N(C)c3ccnc(Nc4cccc(S(N)(=O)=O)c4)n3)ccc12 in this test
n

Query: recorded result category for COc1ccc(C2CC(=O)c3c(O)c(OC)c(OC)c(OC)c3O2)cc1O (stereo not drawn) in this test
n

Next:
Query: recorded result category for COc1ccc2nc3ccccc3c(NCc3ccc(C)cc3)c2c1 in this test
n

Query: recorded result category for COc1cc2c3c(n(CCCN4CCCC(O)C4)c(=O)c2cc1OC)-c1cc2c(cc1C3=O)OCO2 (stereo not drawn) in this test
n

Query: recorded result category for C=C(C)[C@@H]1CC[C@]2(C(N)=O)CC[C@]3(C)[C@H](CC[C@@H]4[C@@]5(C)C/C(=C/c6cccnc6)[C@H](O)C(C)(C)[C@@H]5CC[C@]43C)[C@@H]12 in this test
n

Query: recorded result category for Cc1ccc(C2=NN(c3ccc(S(N)(=O)=O)cc3)C(c3cn(-c4ccccc4)nc3-c3ccccc3)C2)cc1 (stereo not drawn) in this test
n

Query: recorded result category for COC1=C(OC)[C@]2(OC)c3c(O)c(OC)c4c(c3O[C@@]23O[C@@H](c2ccccc2)CC=C3C1=O)[C@@H](O)C[C@H](c1ccccc1)O4 in this test
y
